All values here come from paper PMC5042178.

- Subject Of Test: human TAS2R16 (Homo sapiens, UniProt Q9NYV7, V260F)
- Construct: full-length; N-terminal 45 residues of rat SSTR3 and C-terminal 8 residues of bovine rhodopsin as tags; pEAK10, HEK 293T with G16gust44
- Sequence (Q9NYV7 1-291 V260F): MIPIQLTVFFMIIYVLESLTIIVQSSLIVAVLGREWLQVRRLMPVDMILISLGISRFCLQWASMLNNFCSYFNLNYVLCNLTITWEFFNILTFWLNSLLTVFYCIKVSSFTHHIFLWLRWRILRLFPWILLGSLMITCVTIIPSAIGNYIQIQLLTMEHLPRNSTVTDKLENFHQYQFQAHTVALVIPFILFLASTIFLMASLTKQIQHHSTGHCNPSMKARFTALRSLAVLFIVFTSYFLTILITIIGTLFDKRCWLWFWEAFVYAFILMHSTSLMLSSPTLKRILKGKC
- Assay: calcium imaging (Calcium-4), HEK […]
Endpoint: EC50 (µM)

* OCc1ccccc1O[C@@H]1O[C@H](CO)[C@@H](O)[C@H](O)[C@H]1O | 1280

----------
- Subject Of Test: human TAS2R16 (Homo sapiens, UniProt Q9NYV7, L125W)
- Construct: full-length; N-terminal 45 residues of rat SSTR3 and C-terminal 8 residues of bovine rhodopsin as tags; pEAK10, HEK 293T with G16gust44
- Assay: calcium imaging (Calcium-4), HEK […]
Endpoint: EC50 (µM)

* OCc1ccccc1O[C@@H]1O[C@H](CO)[C@@H](O)[C@H](O)[C@H]1O | 200

----------
- Subject Of Test: human TAS2R16 (Homo sapiens, UniProt Q9NYV7, E86T/I247M)
- Construct: full-length; N-terminal 45 residues of rat SSTR3 and C-terminal 8 residues of bovine rhodopsin as tags; pEAK10, HEK 293T with G16gust44
- Assay: calcium imaging (Calcium-4), HEK […]
pEC50: −log10 of the molar value.
Endpoint: pEC50

- OCc1ccccc1O[C@@H]1O[C@H](CO)[C@@H](O)[C@H](O)[C@H]1O: 2.45

----------
- Subject Of Test: human TAS2R16 (Homo sapiens, UniProt Q9NYV7)
- Construct: full-length; N-terminal 45 residues of rat SSTR3 and C-terminal 8 residues of bovine rhodopsin as tags; pEAK10, HEK 293T with G16gust44
- Assay: calcium imaging (Calcium-4), HEK […]
- Type: cell-based
Endpoint: EC50 (µM)

- N#C[C@H](O[C@@H]1O[C@H](CO[C@@H]2O[C@H](CO)[C@@H](O)[C@H](O)[C@H]2O)[C@@H](O)[C@H](O)[C@H]1O)c1ccccc1: 760

----------
- Subject Of Test: human TAS2R16 (Homo sapiens, UniProt Q9NYV7, I247M)
- Construct: full-length; N-terminal 45 residues of rat SSTR3 and C-terminal 8 residues of bovine rhodopsin as tags; pEAK10, HEK 293T with G16gust44
- Sequence (Q9NYV7 1-291 I247M): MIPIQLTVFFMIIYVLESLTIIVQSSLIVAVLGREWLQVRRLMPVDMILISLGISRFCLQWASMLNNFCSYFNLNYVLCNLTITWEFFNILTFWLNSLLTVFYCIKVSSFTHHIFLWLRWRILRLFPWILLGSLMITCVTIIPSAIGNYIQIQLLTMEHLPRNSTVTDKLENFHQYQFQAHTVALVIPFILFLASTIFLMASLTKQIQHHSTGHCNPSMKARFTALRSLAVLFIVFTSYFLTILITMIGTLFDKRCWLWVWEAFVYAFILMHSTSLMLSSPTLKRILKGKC
- Assay: calcium imaging (Calcium-4), HEK […]
Endpoint: EC50 (µM)

* OCc1ccccc1O[C@@H]1O[C@H](CO)[C@@H](O)[C@H](O)[C@H]1O [salicin] | 1400

----------
- Subject Of Test: human TAS2R16 (Homo sapiens, UniProt Q9NYV7, E86T/I247M/V260F)
- Construct: full-length; N-terminal 45 residues of rat SSTR3 and C-terminal 8 residues of bovine rhodopsin as tags; pEAK10, HEK 293T with G16gust44
- Assay: calcium imaging (Calcium-4), HEK […]
Endpoint: EC50

- OCc1ccccc1O[C@@H]1O[C@H](CO)[C@@H](O)[C@H](O)[C@H]1O: 5.09 mM

----------
- Subject Of Test: human TAS2R16 (Homo sapiens, UniProt Q9NYV7, E86T/V260F)
- Construct: full-length; N-terminal 45 residues of rat SSTR3 and C-terminal 8 residues of bovine rhodopsin as tags; pEAK10, HEK 293T with G16gust44
- Sequence (Q9NYV7 1-291 E86T/V260F): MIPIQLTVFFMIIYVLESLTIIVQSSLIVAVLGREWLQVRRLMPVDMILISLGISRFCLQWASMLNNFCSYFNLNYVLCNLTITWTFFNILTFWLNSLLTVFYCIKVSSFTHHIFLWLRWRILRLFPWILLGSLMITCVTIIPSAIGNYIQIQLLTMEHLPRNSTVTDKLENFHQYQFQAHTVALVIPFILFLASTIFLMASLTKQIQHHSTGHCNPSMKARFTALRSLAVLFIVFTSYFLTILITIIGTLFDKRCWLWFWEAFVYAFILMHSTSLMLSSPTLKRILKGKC
- Assay: calcium imaging (Calcium-4), HEK […]
Endpoint: EC50 (mM)

* OCc1ccccc1O[C@@H]1O[C@H](CO)[C@@H](O)[C@H](O)[C@H]1O [salicin] | 3.65

----------
- Subject Of Test: human TAS2R16 (Homo sapiens, UniProt Q9NYV7, S133C)
- Construct: full-length; N-terminal 45 residues of rat SSTR3 and C-terminal 8 residues of bovine rhodopsin as tags; pEAK10, HEK 293T with G16gust44
- Sequence (Q9NYV7 1-291 S133C): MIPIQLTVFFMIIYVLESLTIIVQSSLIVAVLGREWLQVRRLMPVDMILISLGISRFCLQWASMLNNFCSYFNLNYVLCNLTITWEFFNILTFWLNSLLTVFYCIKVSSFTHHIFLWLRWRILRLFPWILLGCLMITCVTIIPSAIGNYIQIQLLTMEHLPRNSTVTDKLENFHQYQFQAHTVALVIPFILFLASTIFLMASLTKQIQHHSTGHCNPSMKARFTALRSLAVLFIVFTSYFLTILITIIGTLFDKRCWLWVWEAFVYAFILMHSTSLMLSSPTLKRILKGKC
- Assay: calcium imaging (Calcium-4), HEK […]
Endpoint: EC50 (µM)

- OCc1ccccc1O[C@@H]1O[C@H](CO)[C@@H](O)[C@H](O)[C@H]1O: 74
